experiment notes: in vitro
Format: cell-based, human
reported conditions: human, ccrf-cem cells, 0.1 μg/ml; read-out: Suppression
measurement kind: cytotoxicity at 72 h (%)
Lab book: enter the figure in %, no units written.

Worked set:
CCCCCCC(O)CCCCCC/C=C/CC(O)C(O)C(N)(CO)C(=O)O (centres unmarked); 8
CCCCCCC(O)CCCCCC/C=C/CC1OC(=O)C(N)(CO)C1O (centres unmarked); 0
CCCCCCC(O)CCCCCCCCCC1OC(=O)C(N)(CO)C1O (centres unmarked); 2.9
CCCCCCC(=O)CCCCCC/C=C/CC1OC(=O)C(N)(CO)C1O (centres unmarked); 11.3

Request: Quick one: cytotoxicity at 72 h for CCCCCCC(=O)CCCCCCCCCC1OC(=O)C(N)(CO)C1O (centres unmarked) ?
Response: 1.6

Request: Quick one: cytotoxicity at 72 h for CCCCCCC(=O)CCCCCCCCCC(O)C(O)C(N)(CO)C(=O)O (centres unmarked) ?
Response: 3.6

Request: Quick one: cytotoxicity at 72 h for CCCCCCC(=O)CCCCCC/C=C/CC1OC(=O)C(CO)(NC(C)=O)C1O (centres unmarked) ?
Response: 0

Request: Quick one: cytotoxicity at 72 h for CCCCCCC(O)CCCCCCCCCC(O)C(O)C(N)(CO)C(=O)O (centres unmarked) ?
Response: 0

----------
experiment notes: in vitro
Type: cell-based, human
reported conditions: human, kb cells, 1.0 μg/ml; read-out: Suppression
Rule: cytotoxicity at 72 h under 0.3% gives no, otherwise yes.

Worked cases, answers included:
CCCCCCC(O)CCCCCCCCCC1OC(=O)C(N)(CO)C1O (centres unmarked); no
CCCCCCC(=O)CCCCCCCCCC(O)C(O)C(N)(CO)C(=O)O (centres unmarked); no
CCCCCCC(O)CCCCCC/C=C/CC1OC(=O)C(N)(CO)C1O (centres unmarked); no
CCCCCCC(=O)CCCCCCCCCC1OC(=O)C(N)(CO)C1O (centres unmarked); yes
CCCCCCC(=O)CCCCCC/C=C/CC1OC(=O)C(N)(CO)C1O (centres unmarked); yes
CCCCCCC(O)CCCCCCCCCC(O)C(O)C(N)(CO)C(=O)O (centres unmarked); no

Could you now consider this next molecule?
Request: Reported cytotoxicity at 72 h reaches at least 0.3% for CCCCCCC(=O)CCCCCC/C=C/CC1OC(=O)C(CO)(NC(C)=O)C1O (centres unmarked) ?
Response: yes

----------
Tested on: human allogenic MLR (peripheral blood lymphocytes)
experiment notes: human allogenic MLR-suppressive activity
Type: cell-based
reported conditions: donor C/donor D; 1 μg/ml
# 3H-thymidine uptake per record follows
Answer with the number, then the unit.

CCCCCCC(=O)CCCCCC/C=C/CC(O)C(O)C(N)(CO)C(=O)O (stereo not shown) [Example 1]; 4167 cpm

Request: Request body: readout 3H-thymidine uptake, system human allogenic MLR (peripheral blood lymphocytes), query CCCCCCC(=O)CCCCCC/C=C/CC1OC(=O)C(N)(CO)C1O (stereo not shown) [Example 4] . Return the value.
Response: 3703 cpm

Request: Request body: readout 3H-thymidine uptake, system human allogenic MLR (peripheral blood lymphocytes), query CCCCCCC(O)CCCCCC/C=C/CC(O)C(O)C(N)(CO)C(=O)O (stereo not shown) [Example 6] . Return the value.
Response: 2448 cpm

Request: Request body: readout 3H-thymidine uptake, system human allogenic MLR (peripheral blood lymphocytes), query CCCCCCC(=O)CCCCCCCCCC(O)C(O)C(N)(CO)C(=O)O (stereo not shown) [Example 5] . Return the value.
Response: 3466 cpm

Hey, just so you know, these numbers are from patent US5219884A.
